Target: T1, biotinylated human DLL3 protein expressed as a human IgG1 fusion protein (human, UniProt Q9NYJ7 27-492, limits assumed, biotinylated)
T1 sequence: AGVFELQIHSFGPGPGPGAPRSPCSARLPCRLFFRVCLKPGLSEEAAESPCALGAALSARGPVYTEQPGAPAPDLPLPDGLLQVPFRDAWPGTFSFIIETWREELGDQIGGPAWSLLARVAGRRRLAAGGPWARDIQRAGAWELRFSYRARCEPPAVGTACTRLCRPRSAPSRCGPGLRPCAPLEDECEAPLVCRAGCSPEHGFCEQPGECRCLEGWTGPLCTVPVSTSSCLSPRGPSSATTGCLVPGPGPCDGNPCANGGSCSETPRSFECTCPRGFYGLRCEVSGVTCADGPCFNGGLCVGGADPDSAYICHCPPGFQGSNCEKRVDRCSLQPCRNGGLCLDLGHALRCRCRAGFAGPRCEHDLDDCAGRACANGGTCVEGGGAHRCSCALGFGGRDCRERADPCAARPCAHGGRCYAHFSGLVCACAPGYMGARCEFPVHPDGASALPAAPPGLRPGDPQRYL
Test: Octet BLI, single 50 nM
experimental.endpoint: Kd (nM)
Give just the numeric value; nM need not be written.

Past entries and their recorded results:
[[record]]
binder = "2D04 anti-DLL3 trispecific protein (other, not shown: linker 1808, anti-albumin sdAb, linker 1808, anti-CD3 fragment, His6 1819) EVQLVESGGGLVQPGGSLTLSCVASGSTSSINAVGWYRRAPGKQRELVAGISSDGSKVYRDSVKGRFTISRDNAKNSVYLQMNSLRAEDTAVYYCYYFRTVQGSSMRYWGQGTLVTVSS"
experimental_endpoint = "Kd"
unit = "nM"
readout_number = 6.2

[[record]]
binder = "4H03 anti-DLL3 trispecific protein (other, not shown: linker 1808, anti-albumin sdAb, linker 1808, anti-CD3 fragment, His6 1819) EVQLVESGGGLVQPGGSLTLSCAASGSRVSFLSMAWYRQAPGKKRELVAGISADGSTSYIDSVKGRFTISRDNAKNSVYLQMNSLRAEDTAVYYCYAYRWTTRYTYWGQGTLVTVSS"
experimental_endpoint = "Kd"
unit = "nM"
readout_number = 13

[[record]]
binder = "2D012 anti-DLL3 trispecific protein (other, not shown: linker 1808, anti-albumin sdAb, linker 1808, anti-CD3 fragment, His6 1819) EVQLVESGGGLVQPGGSLTLSCVASGKTSSINAMGWYRRAPGKQRELVAGISSDGSKVYTDSVKGRFTISRDNAKNSVYLQMNSLRAEDTAVYYCYYFRTRSGSSMRYWGQGTLVTVSS"
experimental_endpoint = "Kd"
unit = "nM"
readout_number = 4.9

[[record]]
binder = "3G02 anti-DLL3 trispecific protein (other, not shown: linker 1808, anti-albumin sdAb, linker 1808, anti-CD3 fragment, His6 1819) EVQLVESGGGLVQPGGSLTLSCAASGSSVSFLSMAWYRQAPGKKRELVAGISADGRTDYIDSVKGRFTISRDNAKNSVYLQMNSLRAEDTAVYYCYAYRWRTRYTYWGQGTLVTVSS"
experimental_endpoint = "Kd"
unit = "nM"
readout_number = 20

[[record]]
binder = "1E07 anti-DLL3 trispecific protein (other, not shown: linker 1808, anti-albumin sdAb, linker 1808, anti-CD3 fragment, His6 1819) EVQLVESGGGLVQPGGSLTLSCVASGSTSSINAMAWYRRAPGKQRELVAGISSDGSKVYNDSVKGRFTISRDNAKNSVYLQMNSLRAEDTAVYYCYYFRTVRGSSQRYWGQGTLVTVSS"
experimental_endpoint = "Kd"
unit = "nM"
readout_number = 7.1

[[record]]
binder = "3B02 anti-DLL3 trispecific protein (other, not shown: linker 1808, anti-albumin sdAb, linker 1808, anti-CD3 fragment, His6 1819) EVQLVESGGGLVQPGGSLTLSCAASGSSVQFLSMAWYRQAPGKKRELVAGISADGSTDYINSVKGRFTISRDNAKNSVYLQMNSLRAEDTAVYYCYAYRWRTRYTYWGQGTLVTVSS"
experimental_endpoint = "Kd"
unit = "nM"
readout_number = 12


Challenge: Return Kd (reported value) for this binder: 4H05 anti-DLL3 trispecific protein (other, not shown: linker 1808, anti-albumin sdAb, linker 1808, anti-CD3 fragment, His6 1819) EVQLVESGGGLVQPGGSLTLSCAASGSSVSRLSMAWYRQAPGKKRELVAGISARGSTDYIDSVKGRFTISRDNAKNSVYLQMNSLRAEDTAVYYCYAYRWTTRSTYWGQGTLVTVSS
Response given: 64

Challenge: Return Kd (reported value) for this binder: 3D08 anti-DLL3 trispecific protein (other, not shown: linker 1808, anti-albumin sdAb, linker 1808, anti-CD3 fragment, His6 1819) EVQLVESGGGLVQPGGSLTLSCAASGSSVRFLSMAWYRQAPGKKRELVAGISANGSTDYIDSVKGRFTISRDNAKNSVYLQMNSLRAEDTAVYYCYAYRWTNRYTYWGQGTLVTVSS
Response given: 17

Challenge: Return Kd (reported value) for this binder: 4H01 anti-DLL3 trispecific protein (other, not shown: linker 1808, anti-albumin sdAb, linker 1808, anti-CD3 fragment, His6 1819) EVQLVESGGGLVQPGGSLTLSCAASGSSVSFLSMAWYRQAPGKKRELVAGISANGSTDYYDSVKGRFTISRDNAKNSVYLQMNSLRAEDTAVYYCYAYRWRTRYTYWGQGTLVTVSS
Response given: 21

Challenge: Return Kd (reported value) for this binder: 3H07 anti-DLL3 trispecific protein (other, not shown: linker 1808, anti-albumin sdAb, linker 1808, anti-CD3 fragment, His6 1819) EVQLVESGGGLVQPGGSLTLSCAASGSRVSFLSMAWYRQAPGKKRELVAGISADGSTSYIDSVKGRFTISRDNAKNSVYLQMNSLRAEDTAVYYCYAYRWRTRYTYWGQGTLVTVSS
Response given: 13

Challenge: Return Kd (reported value) for this binder: 4C010 anti-DLL3 trispecific protein (other, not shown: linker 1808, anti-albumin sdAb, linker 1808, anti-CD3 fragment, His6 1819) EVQLVESGGGLVQPGGSLTLSCAASGSKVSFMSMAWYRQAPGKKRELVAGISADGSTDYIDSVKGRFTISRDNAKNSVYLQMNSLRAEDTAVYYCYAYRWTTRLTYWGQGTLVTVSS
Response given: 7

Challenge: Return Kd (reported value) for this binder: 4B011 anti-DLL3 trispecific protein (other, not shown: linker 1808, anti-albumin sdAb, linker 1808, anti-CD3 fragment, His6 1819) EVQLVESGGGLVQPGGSLTLSCAASGSSVTFLSMAWYRQAPGKKRELVAGISADGSTVYIDSVKGRFTISRDNAKNSVYLQMNSLRAEDTAVYYCYAYRWTTRGTYWGQGTLVTVSS
Response given: 3.9

Challenge: Return Kd (reported value) for this binder: 3F011 anti-DLL3 trispecific protein (other, not shown: linker 1808, anti-albumin sdAb, linker 1808, anti-CD3 fragment, His6 1819) EVQLVESGGGLVQPGGSLTLSCAASGSSVSFLSMAWYRQAPGKKRELVAGISTDGSTDYIDSVKGRFTISRDNAKNSVYLQMNSLRAEDTAVYYCYAYRWRTRYTYWGQGTLVTVSS
Response given: 7.1

Challenge: Return Kd (reported value) for this binder: 2G03 anti-DLL3 trispecific protein (other, not shown: linker 1808, anti-albumin sdAb, linker 1808, anti-CD3 fragment, His6 1819) EVQLVESGGGLVQPGGSLTLSCVASGSTSSINAMGWYRRAPGKQRELVAGISSDGSLVYADSVKGRFTISRDNAKNSVYLQMNSLRAEDTAVYYCYYFRTVSGSSMRAWGQGTLVTVSS
Response given: 5.6

Challenge: Return Kd (reported value) for this binder: 1D012 anti-DLL3 trispecific protein (other, not shown: linker 1808, anti-albumin sdAb, linker 1808, anti-CD3 fragment, His6 1819) EVQLVESGGGLVQPGGSLTLSCVASGSTSHINAMGWYRRAPGKQRELVAGISSDGSRVYADSVKGRFTISRDNAKNSVYLQMNSLRAEDTAVYYCYYFRTVSGGSMRYWGQGTLVTVSS
Response given: 9.3
